# SYSTEM UNDER TEST: Fibroblast growth factor receptor 2 (Homo sapiens, UniProt P21802)
# Sequence (P21802 whole entry, the tested form may be a part): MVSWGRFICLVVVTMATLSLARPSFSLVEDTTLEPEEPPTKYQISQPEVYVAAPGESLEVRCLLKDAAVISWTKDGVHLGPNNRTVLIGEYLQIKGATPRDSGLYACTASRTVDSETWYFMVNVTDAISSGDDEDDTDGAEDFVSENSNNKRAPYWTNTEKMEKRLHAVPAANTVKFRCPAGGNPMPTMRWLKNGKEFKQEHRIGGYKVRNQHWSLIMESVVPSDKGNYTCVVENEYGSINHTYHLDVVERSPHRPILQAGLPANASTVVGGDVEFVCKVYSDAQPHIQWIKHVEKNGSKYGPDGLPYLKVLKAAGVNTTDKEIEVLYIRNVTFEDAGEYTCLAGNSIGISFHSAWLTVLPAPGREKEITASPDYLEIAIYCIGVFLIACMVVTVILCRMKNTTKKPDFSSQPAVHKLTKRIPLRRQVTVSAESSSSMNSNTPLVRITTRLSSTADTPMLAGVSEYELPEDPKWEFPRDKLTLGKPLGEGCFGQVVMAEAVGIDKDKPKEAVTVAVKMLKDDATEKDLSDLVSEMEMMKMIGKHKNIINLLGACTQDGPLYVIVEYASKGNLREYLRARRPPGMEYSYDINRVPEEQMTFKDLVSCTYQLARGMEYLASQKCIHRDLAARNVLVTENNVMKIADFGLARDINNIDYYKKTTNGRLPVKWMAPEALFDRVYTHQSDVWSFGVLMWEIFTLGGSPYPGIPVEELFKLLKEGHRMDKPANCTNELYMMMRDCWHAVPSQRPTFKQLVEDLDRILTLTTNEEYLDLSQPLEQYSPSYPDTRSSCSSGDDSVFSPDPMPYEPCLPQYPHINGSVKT
# MEASUREMENT PROTOCOL: Inhibition of cytoplasmic recombinant human His-tagged FGFR2 (403 to 822 residues) expressed in baculovirus using tyr4 peptide as substrate after 1 hr by FRET-based Z'-Lyte assay
REPORTED ENDPOINT: IC50 (nM)
Answers are plain numbers, in nM.

Please give the measured IC50 for this compound: "CCC(=O)N1CC[C@H](N2C(=O)N(c3cc(OC)ccc3Cl)Cc3cnc(Nc4ccc(N5CCN(C6COC6)CC5)c(C)c4)nc32)C1"
27

* * *

# Species on record: Homo sapiens
# MEASUREMENT PROTOCOL: Selectivity ratio of IC50 for recombinant human wild type GST-tagged EGFR cytoplasmic domain (668 to 1210 residues) expressed in baculovirus to IC50 for recombinant human His-tagged CSF1R cytoplasmic domain (538 to 910 residues) expressed in baculovirus
Please provide measured Ratio IC50 for the entries that follow.
Numbers only.

Please give the measured Ratio IC50 for this compound: "CCC(=O)N1CC[C@H](N2C(=O)N(c3cccc(OC)c3)Cc3cnc(Nc4ccc(N5CCN(C)CC5)c(C)c4)nc32)C1"
92

Next item in the queue.
Please give the measured Ratio IC50 for this compound: "CCC(=O)N1CC[C@H](N2C(=O)N(c3cc(OC)ccc3Cl)Cc3cnc(Nc4ccc(N5CCN(C6COC6)CC5)c(C)c4)nc32)C1"
120

* * *

# SYSTEM UNDER TEST: UniProt:P07333
# Sequence (P07333 whole entry, the tested form may be a part): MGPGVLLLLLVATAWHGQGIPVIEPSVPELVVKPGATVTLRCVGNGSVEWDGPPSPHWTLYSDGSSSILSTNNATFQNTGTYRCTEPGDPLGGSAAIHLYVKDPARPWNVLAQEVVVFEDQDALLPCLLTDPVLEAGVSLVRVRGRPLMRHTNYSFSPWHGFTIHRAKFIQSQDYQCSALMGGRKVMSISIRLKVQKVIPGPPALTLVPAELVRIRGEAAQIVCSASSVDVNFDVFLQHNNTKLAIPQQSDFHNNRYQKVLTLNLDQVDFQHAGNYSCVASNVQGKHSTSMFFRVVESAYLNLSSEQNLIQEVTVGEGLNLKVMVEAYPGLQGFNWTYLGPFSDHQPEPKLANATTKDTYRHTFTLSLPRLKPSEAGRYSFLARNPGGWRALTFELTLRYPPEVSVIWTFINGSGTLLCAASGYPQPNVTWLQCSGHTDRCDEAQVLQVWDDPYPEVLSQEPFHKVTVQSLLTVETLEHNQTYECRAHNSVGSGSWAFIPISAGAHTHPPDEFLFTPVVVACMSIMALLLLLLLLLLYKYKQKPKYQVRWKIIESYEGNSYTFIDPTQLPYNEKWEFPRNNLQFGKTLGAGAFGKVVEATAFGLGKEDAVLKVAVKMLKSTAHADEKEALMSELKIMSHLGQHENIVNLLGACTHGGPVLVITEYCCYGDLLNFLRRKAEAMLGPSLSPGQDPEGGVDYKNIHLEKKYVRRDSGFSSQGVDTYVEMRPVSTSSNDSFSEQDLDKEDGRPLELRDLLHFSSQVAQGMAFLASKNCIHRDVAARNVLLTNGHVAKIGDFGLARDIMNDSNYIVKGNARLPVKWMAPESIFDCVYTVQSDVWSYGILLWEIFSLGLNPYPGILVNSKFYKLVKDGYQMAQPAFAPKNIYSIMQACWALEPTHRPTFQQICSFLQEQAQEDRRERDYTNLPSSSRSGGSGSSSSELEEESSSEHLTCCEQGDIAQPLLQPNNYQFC
# MEASUREMENT PROTOCOL: Inhibition of recombinant human His-tagged CSF1R cytoplasmic domain (538 to 910 residues) expressed in baculovirus using tyr4 peptide as substrate after 1 hr by FRET-based Z'-Lyte assay
Please provide measured pIC50 for the entries that follow.
One number for each entry, as −log10 of the molar value.

Solved entries (count: 3):
Please give the measured pIC50 for this compound: "CCC(=O)N1CC[C@H](N2C(=O)N(c3ccc(Cl)cc3)Cc3cnc(Nc4ccc(N5CCN(C)CC5)c(C)c4)nc32)C1"
7.83

Please give the measured pIC50 for this compound: "CCC(=O)N1CC[C@H](N2C(=O)N(c3cc(OC)ccc3F)Cc3cnc(Nc4ccc(N5CCN(C)CC5)c(C(F)(F)F)c4)nc32)C1"
7.50

Please give the measured pIC50 for this compound: "CCC(=O)N1CC[C@@H](N2C(=O)N(c3ccccc3Cl)Cc3cnc(Nc4ccc(N5CCN(C)CC5)c(C)c4)nc32)C1"
7.68

Next item in the queue.
Please give the measured pIC50 for this compound: "CCC(=O)N1CC[C@H](N2C(=O)N(c3cc(OC)ccc3F)Cc3cnc(Nc4ccc(N5CCN(C)CC5)c(C(C)C)c4)nc32)C1"
7.59

* * *

# SYSTEM UNDER TEST: Receptor-type tyrosine-protein kinase FLT3 (Homo sapiens, UniProt P36888)
# Sequence (P36888 whole entry): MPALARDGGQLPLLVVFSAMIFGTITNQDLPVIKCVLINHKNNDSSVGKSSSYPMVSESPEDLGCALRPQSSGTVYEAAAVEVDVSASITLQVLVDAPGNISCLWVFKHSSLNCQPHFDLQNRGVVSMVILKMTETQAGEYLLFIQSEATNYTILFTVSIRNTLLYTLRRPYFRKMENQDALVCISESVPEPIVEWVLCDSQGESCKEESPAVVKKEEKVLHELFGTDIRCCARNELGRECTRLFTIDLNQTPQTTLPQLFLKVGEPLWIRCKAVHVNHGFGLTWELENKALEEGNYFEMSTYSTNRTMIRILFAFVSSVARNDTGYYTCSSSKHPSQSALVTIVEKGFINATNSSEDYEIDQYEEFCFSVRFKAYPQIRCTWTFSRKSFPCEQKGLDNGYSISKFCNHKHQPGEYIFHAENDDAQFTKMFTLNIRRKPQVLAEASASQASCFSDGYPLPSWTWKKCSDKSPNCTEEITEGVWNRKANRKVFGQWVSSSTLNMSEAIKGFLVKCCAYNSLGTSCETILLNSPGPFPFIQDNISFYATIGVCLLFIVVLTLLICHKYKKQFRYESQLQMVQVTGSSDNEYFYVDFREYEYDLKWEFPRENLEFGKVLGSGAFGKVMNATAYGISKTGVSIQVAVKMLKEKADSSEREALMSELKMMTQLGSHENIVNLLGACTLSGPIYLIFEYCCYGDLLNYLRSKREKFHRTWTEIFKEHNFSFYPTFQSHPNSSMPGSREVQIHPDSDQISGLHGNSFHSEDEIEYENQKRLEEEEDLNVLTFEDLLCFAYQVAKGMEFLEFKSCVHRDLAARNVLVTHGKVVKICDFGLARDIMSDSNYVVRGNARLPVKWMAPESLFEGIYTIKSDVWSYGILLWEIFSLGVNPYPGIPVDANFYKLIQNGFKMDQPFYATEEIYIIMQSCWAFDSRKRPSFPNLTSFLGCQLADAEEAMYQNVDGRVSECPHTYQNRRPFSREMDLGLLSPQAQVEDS
# MEASUREMENT PROTOCOL: Inhibition of recombinant human His-tagged FLT3 (564 to 958 residues) expressed in baculovirus using poly (Glu,Tyr) as substrate after 2 hrs by PK-Light ATP assay
REPORTED ENDPOINT: IC50 (nM)
Numbers only, in nM.

Please give the measured IC50 for this compound: "CCC(=O)N1CC[C@H](N2C(=O)N(c3cc(OC)ccc3Cl)Cc3cnc(Nc4ccc(N5CCN(C6COC6)CC5)c(C)c4)nc32)C1"
37
